system: Staphylococcus aureus X400; assay: MIC, standard agar-dilution assay; format: cell-based
What MIC was measured for each of the following?
Answers are plain numbers, in mg/L.

compound | assay_system | measure_name | unit_abbreviation | experimental_value
CCCNC1(C)CC(OC2C(Oc3c4cc5cc3Oc3ccc(cc3Cl)C(O)C3NC(=O)C(NC(=O)C5NC(=O)C(CC(N)=O)NC(=O)C(NC(=O)C(CC(C)C)NC)C(O)c5ccc(c(Cl)c5)O4)c4ccc(O)c(c4)-c4c(O)cc(O)cc4C(C(=O)O)NC3=O)OC(CO)C(O)C2O)OC(C)C1O (stereo not drawn) | Staphylococcus aureus X400 | MIC | mg/L | 1
CCCCCCCCOc1ccc(CNC2(C)CC(OC3C(Oc4c5cc6cc4Oc4ccc(cc4Cl)C(O)C4NC(=O)C(NC(=O)C6NC(=O)C(CC(N)=O)NC(=O)C(NC(=O)C(CC(C)C)NC)C(O)c6ccc(c(Cl)c6)O5)c5ccc(O)c(c5)-c5c(O)cc(O)cc5C(C(=O)O)NC4=O)OC(CO)C(O)C3O)OC(C)C2O)cc1 (stereo not drawn) | Staphylococcus aureus X400 | MIC | mg/L | 0.5

Report value: MIC, system: Staphylococcus aureus X400, compound: CCCCCCCCN(C)C(CC(C)C)C(=O)NC1C(=O)NC(CC(N)=O)C(=O)NC2C(=O)NC3C(=O)NC(C(=O)NC(C(=O)O)c4cc(O)cc(O)c4-c4cc3ccc4O)C(O)c3ccc(c(Cl)c3)Oc3cc2cc(c3OC2OC(CO)C(O)C(O)C2OC2CC(C)(N)C(O)C(C)O2)Oc2ccc(cc2Cl)C1O (stereo not drawn) 1
